# credit: the supplement of paper PMC10567573

B1: KIAA0774 (parent)
chain: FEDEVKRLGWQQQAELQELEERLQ

variants of: B1; assay: protein stability index of a GFP-peptide fusion (GPS, HEK-293T) (PSI 1-6); higher = more stable; details: c terminus: a fixed tail appended;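 note: lentivirally expressed fusions sorted by FACS into six bins by GFP to DsRed ratio, PSI derived from sequencing read proportions per bin multiplied by bin number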
Some variants, each annotated with its measured protein stability index.
The answer should be a number; do not append a unit.

V5N	4.08
Q24C	4.22

Problem: I have this variant here, E4V , and I need its recorded protein stability index.
Solution: 3.33

Problem: # lookup: protein stability index of R22C
Solution: 4.48

Problem: I am curious: what protein stability index value has been reported for L8Q ?
Solution: 4.48

Problem: Which protein stability index is reported for this variant? K6R
Solution: 4.03

Problem: What value of measured protein stability index is listed for E21P ?
Solution: 4.51
